assayed target: HemO (Pseudomonas aeruginosa, UniProt G3XCZ8)
Sequence (G3XCZ8 whole entry): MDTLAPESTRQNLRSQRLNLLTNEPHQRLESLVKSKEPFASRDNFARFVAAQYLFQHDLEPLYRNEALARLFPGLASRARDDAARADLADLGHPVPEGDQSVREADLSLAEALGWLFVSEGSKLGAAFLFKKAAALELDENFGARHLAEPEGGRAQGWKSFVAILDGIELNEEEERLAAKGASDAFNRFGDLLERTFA
test name: intrinsic fluorescence quenching
measurement label: Kd (µM)
Give the value, in units of µM, as a plain number.

Ask: Which Kd is reported for this molecule? `C=CC1=C(C)C2=Cc3c(C=C)c(C)c4[n]3[Fe]([Cl])[n]3c(c(C)c(CCC(=O)O)c3=CC3=NC(=C4)C(C)=C3CCC(=O)O)=CC1=N2`
Result: 0.87
